// provenance: PubChem BioAssay AID1159580

assay remarks: chemical genetic growth profiling, strain panel (AID 1159580);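 note: tested at 20 µM; growth read once vehicle control cultures reached saturation at 30 °C; 1 = growth at the plate median or of vehicle wells; lower values mean less growth of the strain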
protocol conditions: S. cerevisiae deletion strains, growth OD, locus YPL256C, strain CLN2
Hit rate of the full screen: of about 5,500 compounds, about 2,000 (36%) were called active. Not shown: some 18% with an inconclusive outcome. Cut-off read from the data, not from the text of the source: active = normalized growth mostly below about 0.91 (no sharp cut-off); inconclusive = no clear call, values can overlap the other calls; inactive = mostly above about 0.92. The list shows a part of the results.
Give one outcome, nothing more. List: active, inactive

// below: answered molecules
{"molecule": "COc1ccc2c(c1)OC/C(=C/c1ccc(OC)c(OC)c1)C2=O", "qualitative label": "inactive"}
{"molecule": "N#C/C(=N/Nc1ccc(F)cc1)S(=O)(=O)c1ccc(Cl)cc1", "qualitative label": "inactive"}
{"molecule": "CC1(C)S[C@@H]2[C@H](NC(=O)[C@H](N)c3ccccc3)C(=O)N2[C@H]1C(=O)O", "qualitative label": "inactive"}
{"molecule": "CCOC(=O)c1ccc2nc(N=CNO)sc2c1", "qualitative label": "inactive"}
{"molecule": "CCC(C)C(=O)O[C@@H]1C[C@@]2(C)[C@H](c3ccoc3)OC(=O)CC23OC2(C)O[C@]14[C@]1(C)[C@@H](CC(=O)OC)C5(C)CC1(O)[C@](O)(C5OC(=O)C1(C)OC1C)[C@@H](OC(C)=O)[C@]34O2 (some centres not stated)", "qualitative label": "inactive"}

Task: Hi, sorry to bother you, what did the test record for CC(C)NCC(O)COc1cccc2[nH]ccc12 (configuration not stated) ?
Output: inactive

Task: Likewise for `Cc1ccc(S(=O)(=O)NC(=O)Nc2ccc(Sc3ccccc3)nc2Sc2ccccc2)cc1` ?
Output: inactive

Task: Record: C=C[C@@](C)(O)CCC1C(=C)CCC2[C@@](C)(CO)CCC[C@]12C (some centres not stated)
Output: inactive

Task: // repeat for `O=C(Nc1cccc(C(F)(F)F)c1)c1cncc(C#Cc2ccccc2)c1` and report
Output: inactive

###

Known normalized growth of a selection of compounds
assay remarks: chemical genetic growth profiling, strain panel (AID 1159580)
protocol conditions: S. cerevisiae deletion strains, growth OD, locus YOR070C, strain gyp1, stronger effect = lower value
Among all 5,500 compounds or so, about 2,000 (36%) were called active. Roughly 18% stayed inconclusive and do not appear here. The list shows a part of the results.
Please reply with the number alone, leaving off any unit.

Task: Which measured normalized growth value corresponds to `O=C(O)/C=C/c1ccc(O)c(O)c1` ?
Output: 0.972

Task: Lookup O=C(/C=C/c1ccc(O)c(O)c1)OC(Cc1ccc(O)c(O)c1)C(=O)O (stereo unspecified)
Output: 1.01

Task: // same read-out, input: `C=CCc1ccc(O)c(OC)c1`
Output: 0.996

Task: Again, but for Clc1ccc(C(OCCN2CCCCC2)c2ccccc2)cc1 (stereo unspecified)
Output: 1.03

Task: CCCCC/C=C/CCC(=O)N[C@H]1[C@H](Oc2c3cc4cc2Oc2ccc(cc2Cl)[C@@H](O[C@@H]2O[C@H](CO)[C@@H](O)[C@H](O)[C@H]2NC(C)=O)[C@@H]2NC(=O)[C@H](NC(=O)[C@@H]4NC(=O)[C@H]4NC(=O)C(Cc5ccc(c(Cl)c5)O3)NC(=O)[C@H](N)c3ccc(O)c(c3)Oc3cc(O)cc4c3)c3ccc(O)c(c3)-c3c(OC4O[C@H](CO)[C@@H](O)[C@H](O)[C@@H]4O)cc(O)cc3[C@@H](C(=O)O)NC2=O)O[C@H](CO)[C@@H](O)[C@@H]1O (stereo partly specified) , same question.
Output: 1.02

Task: Also, CN1C2CCC1CC(OC(c1ccccc1)c1ccccc1)C2 (stereo unspecified) please.
Output: 0.989

Task: # repeat for `NCCc1cnc[nH]1`
Output: 1.02

###

assay remarks: chemical genetic growth profiling, strain panel (AID 1159580)
protocol conditions: S. cerevisiae deletion strains, growth OD, locus YNL006W, strain LST8, stronger effect = lower value
The campaign covered roughly 5,500 compounds. About 2,000 (36%) were called active. About 18% were inconclusive and are not listed. Some of the results follow.
Catalogue of normalized growth values
Output spec: single numeric token, no unit.

For orientation, consider the following solved cases.
{"compound": "Cc1ccc(S(=O)(=O)NC(=O)Nc2ccc(Sc3ccccc3)nc2Sc2ccccc2)cc1", "normalized growth": 0.968}
{"compound": "Cc1nn(C)c(C(=O)Sc2ccc(OC(F)(F)F)cc2)c1[N+](=O)[O-]", "normalized growth": 0.974}

Task: Reported normalized growth for `CC1(C)CC(=O)C=C(Sc2nc3ccccc3o2)C1` : what is it?
Output: 0.974

Task: Please do the same for `CCCN(CCC)C(=S)NC(=O)c1cccc([N+](=O)[O-])c1` as well.
Output: 0.977

###

normalized growth for assorted compounds
assay remarks: chemical genetic growth profiling, strain panel (AID 1159580);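 note: tested at 20 µM; growth read once vehicle control cultures reached saturation at 30 °C; 1 = growth at the plate median or of vehicle wells; lower values mean less growth of the strain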
protocol conditions: S. cerevisiae deletion strains, growth OD, locus YNL307C, strain MCK1, stronger effect = lower value
Hit rate of the full screen: of about 5,500 compounds, about 2,000 (36%) were called active. About 18% were inconclusive and are not listed. The list shows a part of the results.
Keep the answer to the number alone.

In the examples that follow, each entry is paired with its recorded normalized growth.
{"compound": "O=C(O)CCCc1ccc(N(CCCl)CCCl)cc1", "recorded number": 0.983}
{"compound": "OCC(O)CN1CCN(c2ccccc2)CC1 (stereo unspecified)", "recorded number": 0.997}
{"compound": "COc1ccc(C(=O)O)cc1OC", "recorded number": 0.975}
{"compound": "CCC[C@H](N[C@@H](C)C(=O)N1[C@H](C(=O)O)C[C@@H]2CCCC[C@@H]21)C(=O)OCC", "recorded number": 1.03}

Task: Entry `CCCCNC(=O)NS(=O)(=O)c1ccc(C)cc1` : reported normalized growth = ?
Output: 0.978

Task: Another compound to check: CCCCCCC(C)OC(=O)COc1cc(Cl)c(Cl)cc1Cl (stereo unspecified)
Output: 0.973

###

# maps each entry to its normalized growth
assay remarks: chemical genetic growth profiling, strain panel (AID 1159580);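 note: tested at 20 µM; growth read once vehicle control cultures reached saturation at 30 °C; 1 = growth at the plate median or of vehicle wells; lower values mean less growth of the strain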
protocol conditions: S. cerevisiae deletion strains, growth OD, locus YMR231W, strain pep5, stronger effect = lower value
Among all 5,500 compounds or so, about 2,000 (36%) were called active. About 18% were inconclusive and are not listed. Some of the results follow.
Could you respond with only the numeric value?

Example results:
{"molecule": "Cc1ccc(S(=O)(=O)NC(=O)NN2CCCCCC2)cc1", "normalized growth": 0.986}
{"molecule": "CC[C@@H]1C=C/C=C/C[C@H](C)[C@@H](O)[C@](C)(O)C(=O)[C@H](C)[C@@H](O)[C@H](C)C(=O)[C@H](C)[C@@H](O)[C@H](C)/C=C/C(=O)O[C@H]2[C@@H](C)[C@@H](CC1)O[C@@]1(CC[C@@H](C)[C@@H](C[C@H](C)O)O1)[C@@H]2C", "normalized growth": 1}
{"molecule": "O=c1cccc2ccc(O)c(O)c2c1O", "normalized growth": 0.463}
{"molecule": "COC(=O)c1cc(=O)c(O)c2c(O)c(O)ccc2c1", "normalized growth": 0.995}
{"molecule": "OCC(O)CN1CCN(c2ccccc2)CC1 (stereo not given)", "normalized growth": 0.989}

Task: Quick one: normalized growth of `O=S(=O)(O)c1cc(N=C=S)ccc1/C=C/c1ccc(N=C=S)cc1S(=O)(=O)O` ?
Output: 1.02

Task: Same read-out for COc1cc([C@@H]2c3cc4c(cc3[C@@H](O)C3COC(=O)C32)OCO4)cc(OC)c1O (stereo not given in full) ?
Output: 0.977

Task: Same lookup for CNCCC(Oc1ccc(C(F)(F)F)cc1)c1ccccc1 (stereo not given) , please.
Output: 0.992

Task: Queued: `Cc1[nH]c2ccccc2c1CN(C)C`
Output: 1.02

Task: Another molecule: `CCCCNC(=O)NS(=O)(=O)c1ccc(C)cc1`
Output: 1

###

assay remarks: chemical genetic growth profiling, strain panel (AID 1159580);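 note: tested at 20 µM; growth read once vehicle control cultures reached saturation at 30 °C; 1 = growth at the plate median or of vehicle wells; lower values mean less growth of the strain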
protocol conditions: S. cerevisiae deletion strains, growth OD, locus YLR371W, strain rom2, stronger effect = lower value
Among all 5,500 compounds or so, about 2,000 (36%) were called active. About 18% were inconclusive and are not listed. The list shows a part of the results.
readout type: normalized growth
Quick one: just the number, no unit, thanks!

Examples with answers:
{"molecule": "O=C(O)c1cc2cc(F)ccc2[nH]1", "recorded number": 1.01}
{"molecule": "COc1cc2c(cc1OC)C(=O)c1ccc(OC)c(OC)c1OCC(=O)C2", "recorded number": 0.984}
{"molecule": "O=C1NCC2(CCN(CCc3ccccc3)CC2)O1", "recorded number": 1.01}
{"molecule": "COc1ccc2c(c1)OC/C(=C/c1ccc(OC)c(OC)c1)C2=O", "recorded number": 0.951}

Task: Name the reported normalized growth value associated with the molecule Cc1ccccc1C(OCCN(C)C)c1ccccc1 (stereo unspecified)
Output: 1.01

Task: Next molecule: `COc1ccc(C(=O)O)cc1OC`
Output: 0.991

Task: Try this molecule next: `COc1cc(OC)c2c(c1)O[C@H](c1cc(OC)c(OC)c(OC)c1)[C@H](OC(=O)c1cc(OC)c(OC)c(OC)c1)C2`
Output: 1.01
